tgt: RARβ2 (Homo sapiens)
Construct: expressed in transfected cells
Sequence (P10826 1-448 isoform P10826-2): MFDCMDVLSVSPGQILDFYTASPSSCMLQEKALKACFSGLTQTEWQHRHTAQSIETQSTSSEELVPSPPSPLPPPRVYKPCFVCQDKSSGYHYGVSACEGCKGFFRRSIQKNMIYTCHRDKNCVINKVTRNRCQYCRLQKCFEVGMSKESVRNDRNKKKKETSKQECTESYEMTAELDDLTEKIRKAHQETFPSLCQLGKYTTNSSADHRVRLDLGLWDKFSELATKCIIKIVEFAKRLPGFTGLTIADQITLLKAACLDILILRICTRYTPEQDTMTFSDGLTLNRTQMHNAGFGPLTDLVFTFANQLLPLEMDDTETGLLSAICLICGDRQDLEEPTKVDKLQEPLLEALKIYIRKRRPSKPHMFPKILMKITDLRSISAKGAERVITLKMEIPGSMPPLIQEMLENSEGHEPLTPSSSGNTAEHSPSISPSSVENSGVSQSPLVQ
experiment description: Receptor Selection and Amplification Technology (R-SAT) functional receptor assay
Assay type: cell-based
condition notes: Table 1
observable: pEC50

                                   compound                   tgt  measured_result
0        CCCCCCOc1ccc(-c2ccc(C(=O)O)cc2)cc1  RARβ2 (Homo sapiens)             7.54
1  CCCCCCCCc1ccc(-c2ccc(C(=O)O)cc2)cc1 [Compound 35]  RARβ2 (Homo sapiens)             6.94
2         CCCCCCc1ccc(-c2ccc(C(=O)O)cc2)cc1  RARβ2 (Homo sapiens)             7.34
3  CCCCCCCCc1ccc(-c2ccc(C(=O)O)cc2)cc1 [Compound 6]  RARβ2 (Homo sapiens)             7.73
4  CCCCCCCCc1ccc(-c2ccc(C(=O)Nc3ccc(C)cn3)cc2)cc1  RARβ2 (Homo sapiens)             7.08
5  CCCC1CCCC(c2ccc(-c3ccc(C(=O)O)cc3)cc2)CC1 (stereo not shown)  RARβ2 (Homo sapiens)             6.55
6  CCCCCCCCc1ccc(-c2ccc(C(=O)n3cnc(NC(C)=O)n3)cc2)cc1  RARβ2 (Homo sapiens)             7.37
7      CCCCCCCCOc1ccc(-c2ccc(C(=O)O)cc2)cc1  RARβ2 (Homo sapiens)             7.02
8    CCCCCCCCCCOc1ccc(-c2ccc(C(=O)O)cc2)cc1  RARβ2 (Homo sapiens)             7.26
9          CCCCCc1ccc(-c2ccc(C(=O)O)cc2)cc1  RARβ2 (Homo sapiens)             7.82
